molecular target: Leishmania donovani tyrosyl-tRNA synthetase (LdTyrRS) (Leishmania donovani, UniProt A0A3Q8ID88)
attribute measured: IC50 (pM)
Give bare numbers, in pM.

Record Nc1ncnc2c1ncn2[C@@H]1O[C@H](COS(=O)(=O)NC(=O)[C@@H](N)Cc2ccc(O)cc2)[C@@H](O)[C@H]1O [TyrSA, 5'-O-[N-(L-tyrosyl)sulfamoyl]adenosine] . Reported IC50: 690
